Listed here are molecules together with their documented MIC C. alb.
Test system: Candida albicans
Assay type: cell-based
Square brackets hold non-standard residues; d marks the D form. Peptide text beside a SMILES is read from it. 1Nal = N[C@@H](Cc1cccc2ccccc12)C(=O)O; Cha = N[C@@H](CC1CCCCC1)C(=O)O
Dear colleague, please return just the value in µg/mL, with no unit written.

CC[C@H](C)[C@H](NC(=O)[C@H](CC(C)C)NC(=O)[C@H](CC1CCCCC1)NC(=O)CNC(=O)[C@@H](NC(=O)[C@H](CCCCN)NC(=O)[C@H](CO)NC(=O)[C@@H](N)CCCCN)C(C)C)C(=O)N[C@@H](CCC(N)=O)C(=O)N[C@@H](CC(C)C)C(=O)N[C@@H](Cc1ccccc1)C(=O)N[C@@H](Cc1c[nH]cn1)C(=O)N[C@@H](CCCCN)C(=O)N[C@@H](CCCCN)C(=O)O [BPI.144] (H-KSKVG[Cha]LIQLFHKK-OH; N-terminus and C-terminus assumed) = 12.50

In plain terms, CC[C@H](C)[C@H](NC(=O)[C@H](CC(C)C)NC(=O)[C@H](Cc1cccc2ccccc12)NC(=O)CNC(=O)[C@@H](NC(=O)[C@H](CCCCN)NC(=O)[C@H](CO)NC(=O)[C@@H](N)CCCCN)C(C)C)C(=O)N[C@@H](CCC(N)=O)C(=O)N[C@@H](CC(C)C)C(=O)N[C@@H](Cc1ccccc1)C(=O)N[C@@H](Cc1cccc2ccccc12)C(=O)N[C@@H](CCCCN)C(=O)N[C@@H](CCCCN)C(=O)O [BPI.148] (H-KSKVG[1Nal]LIQLF[1Nal]KK-OH; N-terminus and C-terminus assumed) has a documented MIC C. alb of 50.00
